system-under-test: PPAR gamma (Homo sapiens, UniProt P37231)
Sequence (P37231 238-503 limits assumed): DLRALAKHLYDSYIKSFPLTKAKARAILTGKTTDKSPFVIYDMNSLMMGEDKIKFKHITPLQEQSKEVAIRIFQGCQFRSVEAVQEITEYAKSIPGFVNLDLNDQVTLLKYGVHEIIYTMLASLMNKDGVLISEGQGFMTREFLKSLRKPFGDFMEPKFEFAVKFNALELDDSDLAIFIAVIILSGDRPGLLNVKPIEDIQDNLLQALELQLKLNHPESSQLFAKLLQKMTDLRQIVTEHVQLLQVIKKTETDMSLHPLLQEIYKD
method-summary: Transient transfection (transactivation) assay in CV-1 cells, GAL4-PPAR chimera, luciferase reporter
pEC50: −log10 of the molar value.
value-kind: pEC50

compound: Cc1ccc(S(=O)(=O)N2CCN(c3nc(C(F)(F)F)cs3)CC2)cc1CC(=O)O
value-kind: pEC50
result: 4.00 to 5.30

compound: Cc1cccc(N2CCN(S(=O)(=O)c3cccc(CC(=O)O)c3)CC2C)c1 (centres unmarked)
value-kind: pEC50
result: 4.00 to 5.30

compound: Cc1ccc(S(=O)(=O)N2CCN(c3nc(Cl)c(Cl)s3)CC2)cc1CC(=O)O
value-kind: pEC50
result: > 5.30

compound: Cc1cc(CC(=O)O)cc(S(=O)(=O)N2CCN(c3ccc(C(F)(F)F)c(F)c3)[C@@H](C)C2)c1
value-kind: pEC50
result: 4.00 to 5.30

compound: Cc1ccc(CC(=O)O)cc1S(=O)(=O)N1CCN(c2ccccc2C#N)CC1
value-kind: pEC50
result: < 4.00

compound: Cc1cc(CC(=O)O)cc(S(=O)(=O)N2CCN(c3ccccc3)CC2)c1
value-kind: pEC50
result: < 4.00

compound: COc1ccc(S(=O)(=O)N2CCN(c3ccc(C(F)(F)F)cc3)CC2)cc1CC(=O)O
value-kind: pEC50
result: 4.00 to 5.30

compound: O=C(O)Cc1cccc(S(=O)(=O)N2CCN(Cc3ccc(F)cc3)CC2)c1
value-kind: pEC50
result: 4.00 to 5.30
